COMPOUND	melting point
CC(Nc1cc(F)cc(F)c1)c1cc(C(=O)NC(C)(C)CO)cc2ncc(N3CCOCC3)nc12 (centres unmarked) [Compound 169]	217 °C
CN(C)C(=O)c1cc(NCc2ccc(F)cc2)c2nc(N3CCOCC3)cnc2c1 [Compound 400]	80 °C
CNCCNC(=O)c1cc(C(C)N(C)c2cccc(F)c2)c2nc(N3CCOCC3)cnc2c1 (centres unmarked) [Compound 130]	159 °C
CCN1CCN(C(=O)c2cc(C(C)Nc3cc(F)cc(F)c3)c3nc(N4CCOCC4)cnc3c2)CC1 (centres unmarked) [Compound 143]	80 °C
O=C(c1cc(C2CCCN2c2cc(F)cc(F)c2)c2nc(N3CCOCC3)cnc2c1)N1CC2(COC2)C1 (single isomer, unassigned) [Compound 47]	80 °C
CN(C)C(=O)c1cc(N2CCCC2c2cc(F)cc(F)c2)c2nc(N3CCOCC3)cnc2c1 (single isomer, unassigned) [Compound 395a]	90 °C
CN(C)C(=O)c1cc(N2CCC2c2ccc(F)cc2)c2nc(N3CCOCC3)cnc2c1 (centres unmarked) [Compound 397]	70 °C
CC(Oc1cc(F)cc(F)c1)c1cc(C(=O)N(C)C)cc2ncc(C3=CCOCC3)nc12 (single isomer, unassigned) [Compound 403b]	54 °C
CC(Nc1ccc(F)c(F)c1)c1cc(C(=O)N[C@H]2CCNC2)cc2ncc(N3CCOCC3)nc12 (single isomer, unassigned) [Compound 374b]	130 °C
CC(Nc1cc(F)cc(F)c1)c1cc(C(=O)N(C)C)cc2ncc(N3CCOCC3)nc12 (centres unmarked) [Compound 11]	228 °C
OC1CN(Cc2cc(C3CCCN3c3cc(F)cc(F)c3)c3nc(N4CCOCC4)cnc3c2)C1 (centres unmarked) [Compound 76]	90 °C
CC(Oc1cccc(F)c1)c1cc(C(=O)N2CCC[C@H]2CO)cc2ncc(N3CCOCC3)nc12 (single isomer, unassigned) [Compound 86]	76 °C
Cc1c(N2CCCC2c2cc(C(=O)N(C)C)cc3ncc(N4CCOCC4)nc23)cccc1C(F)(F)F (centres unmarked) [Compound 55]	80 °C
CC(Nc1ccc(F)c(F)c1)c1cc(C(=O)NCC2CCCN2)cc2ncc(N3CCOCC3)nc12 (single isomer, unassigned) [Compound 329a]	121 °C
